Tested on: L1210 leukemia ip in BDF1 mice, survival T/C
Method Notes: NCI In Vivo Anticancer Drug Screen. Data for tumor model L1210 Leukemia (intraperitoneal) in B6D2F1 (BDF1) mice
Test Settings: endpoint: mean survival time; dose: 100.0 mg/kg/injection; schedule: Q04DX003 (ip); vehicle: Klucel (hydroxypropylcellulose) (HPC); higher = longer survival
Toxic doses and inconclusive results are not listed.
Endpoint Label: T/C

Problem: // fetch T/C; item: COC(=O)c1nc(Cl)nc(N)c1Cl ; system: L1210 leukemia ip in BDF1 mice, survival T/C
Result: 94 % of control

Problem: Recall the reported T/C of Nc1ccccc1C(=O)OCCc1ccccc1 when tested on L1210 leukemia ip in BDF1 mice, survival T/C.
Result: 94 % of control

Problem: Find the measured T/C of O=C(Nc1ccc(N=Nc2ccccc2)cc1)Nc1cc([N+](=O)[O-])ccc1F with L1210 leukemia ip in BDF1 mice, survival T/C as test system.
Result: 86 % of control

Problem: Give T/C for CCCCC(CC)CCC(O)CCC(CC)CC (stereo not drawn) tested on L1210 leukemia ip in BDF1 mice, survival T/C.
Result: 102 % of control

Problem: GET T/C where system = L1210 leukemia ip in BDF1 mice, survival T/C and item = COc1ccc(OC)c(NC(=O)NCCCl)c1
Result: 101 % of control

Problem: Check L1210 leukemia ip in BDF1 mice, survival T/C data and give T/C for CN(N)P(=O)(Nc1ccccc1)Nc1ccccc1 .
Result: 91 % of control

Problem: Specify T/C for CSc1ccc(/C=N/NC(N)=S)c(SC)n1 , system L1210 leukemia ip in BDF1 mice, survival T/C.
Result: 98 % of control

Problem: Answer briefly: T/C recorded on L1210 leukemia ip in BDF1 mice, survival T/C for CN(C=O)c1cccc(C(=O)O)c1
Result: 103 % of control

Problem: Given CC(C)N=Cc1ccccc1O.CC(C)N=Cc1ccccc1O.[Zn] , report its T/C on L1210 leukemia ip in BDF1 mice, survival T/C.
Result: 88 % of control

Problem: Identify measured T/C obtained with L1210 leukemia ip in BDF1 mice, survival T/C for FC1(F)C=C(c2ccccc2)C1(Cl)Cl .
Result: 107 % of control

Problem: Provide T/C, system L1210 leukemia ip in BDF1 mice, survival T/C, entry Cc1cc(C)c(C(=O)C2CC=CCC2c2c(C)cc(C)cc2C)c(C)c1 (stereo not drawn)
Result: 101 % of control

Problem: Write T/C of CCOC(=O)c1ccc(C(=O)OCC)c(C#N)n1 ; system used: L1210 leukemia ip in BDF1 mice, survival T/C
Result: 100 % of control

Problem: Write down measured T/C (L1210 leukemia ip in BDF1 mice, survival T/C) for this compound. O=C(/C=C/c1ccccc1)c1ccccc1
Result: 100 % of control

Problem: // fetch T/C for CCC(Br)C(Br)CC(Br)C(Br)CC(Br)C(Br)CCCCCCCC(=O)O (stereo not drawn) ; system: L1210 leukemia ip in BDF1 mice, survival T/C
Result: 98 % of control

Problem: Lab note: L1210 leukemia ip in BDF1 mice, survival T/C assay, enter T/C for Cc1ccc([N+](=O)[O-])cc1NC(=O)N1CCCCC1C (stereo not drawn) here
Result: 100 % of control

Problem: // fetch T/C for O=CNc1ccc2c(c1)Cc1cc(Br)ccc1-2 ; system: L1210 leukemia ip in BDF1 mice, survival T/C
Result: 101 % of control

Problem: Please tell me the measured T/C for CCOC(OCC)C(O)CNc1ccc([N+](=O)[O-])cc1[N+](=O)[O-] (stereo not drawn) ; system: L1210 leukemia ip in BDF1 mice, survival T/C.
Result: 98 % of control

Problem: Identify measured T/C obtained with L1210 leukemia ip in BDF1 mice, survival T/C for Cc1cccc(NC(=O)NCCCl)c1Cl .
Result: 97 % of control

Problem: State recorded T/C with L1210 leukemia ip in BDF1 mice, survival T/C, entry Cc1cc(N=Nc2ccc(N(C)C)cc2)cc(C)[n+]1[O-] , no comment.
Result: 100 % of control

Problem: # assay system L1210 leukemia ip in BDF1 mice, survival T/C: give T/C of O=C1c2cc(Cl)cc(Cl)c2-c2c1cc(Cl)cc2[N+](=O)[O-]
Result: 97 % of control

Problem: Report its T/C with L1210 leukemia ip in BDF1 mice, survival T/C as the test system: CC(C)(C)NC(=O)NCCc1ccccc1
Result: 96 % of control

Problem: # return T/C of O=C(NC1CC2c3ccccc3C1c1ccccc12)NC1CC2c3ccccc3C1c1ccccc12 (stereo not drawn) (system: L1210 leukemia ip in BDF1 mice, survival T/C)
Result: 94 % of control

Problem: Please look at COC(=O)c1ccccc1N=NNc1ccc(-c2nc(N)nc(N)n2)cc1 and tell me its recorded T/C on L1210 leukemia ip in BDF1 mice, survival T/C.
Result: 100 % of control

----------
Test system: L1210 leukemia ip in BDF1 mice, survival T/C
Method Notes: NCI In Vivo Anticancer Drug Screen. Data for tumor model L1210 Leukemia (intraperitoneal) in B6D2F1 (BDF1) mice
Test Settings: endpoint: mean survival time; dose: 50.0 mg/kg/injection; schedule: Q04DX003 (ip); vehicle: saline; higher = longer survival
Inconclusive results and toxic doses are left out.
Kindly supply the reported T/C values for the records listed here.

Problem: Given the molecule O=C(O)C(O)C(O)C(=O)O.O=C(O)C(O)C(O)C(=O)O.[O]=[V].[O]=[V] (centres undefined) , write its reported T/C.
Result: 104 % of control

Problem: Identify measured T/C corresponding to OC(CNc1ccc(Cl)cc1)CN1CCCCC1 (centres undefined)
Result: 91 % of control

Problem: Give me measured T/C, please, for this molecule: CSC(N)=Nc1c(C)cccc1C
Result: 102 % of control

Problem: Report T/C for CC#CC(C)=O
Result: 92 % of control

----------
I'd be grateful if you could share measured T/C for these entries.
Tested on: L1210 leukemia ip in BDF1 mice, survival T/C
Method Notes: NCI In Vivo Anticancer Drug Screen. Data for tumor model L1210 Leukemia (intraperitoneal) in B6D2F1 (BDF1) mice
Test Settings: endpoint: mean survival time; dose: 200.0 mg/kg/injection; schedule: Q04DX003 (ip); vehicle: Klucel (hydroxypropylcellulose) (HPC); higher = longer survival
Inconclusive results and toxic doses are left out.

Problem: Give recorded T/C. COc1ccc(C(=O)CCC(=O)O)c2ccccc12
Result: 93 % of control

Problem: Assign T/C to the following record: COc1ccc(OC)c2c1CC1CC(=O)OC21C (stereo not drawn)
Result: 97 % of control

Problem: Give recorded T/C. O=C(Nc1ccc(Nc2ccccc2)cc1)Nc1cccc2ccccc12
Result: 92 % of control

----------
System: L1210 leukemia ip in BDF1 mice, survival T/C
Method Notes: NCI In Vivo Anticancer Drug Screen. Data for tumor model L1210 Leukemia (intraperitoneal) in B6D2F1 (BDF1) mice
Test Settings: endpoint: mean survival time; dose: 200.0 mg/kg/injection; schedule: Q01DX009 (ip); vehicle: Klucel (hydroxypropylcellulose) (HPC); higher = longer survival
Toxic doses and inconclusive results are not listed.
Endpoint Label: T/C

Problem: Recall and state the measured T/C for O=C(Nc1ccc(Cl)c(Cl)c1)OCC1CC2C=CC1C2 (configuration not stated) .
Result: 97 % of control

Problem: Tell us which T/C value is on record for COc1ccc(COC(=O)Nc2ccc(Br)cc2)c(OC)c1
Result: 104 % of control

Problem: Retrieve T/C measured for O=C(OC1CC2CC1C1C=CCC21)c1ccc([N+](=O)[O-])cc1 (configuration not stated) and print it.
Result: 104 % of control

Problem: Item NC(N)=NC(N)=Nc1ccccc1-c1ccccc1 : provide T/C
Result: 103 % of control

Problem: Supply measured T/C of CCOc1ccc(NC(=O)OCCOc2ccccc2)cc1 in your reply.
Result: 100 % of control

Problem: Report T/C for CC(O)c1cccc(NC(=O)NC(C)(C)C)c1 (configuration not stated)
Result: 107 % of control

Problem: Kindly indicate its recorded T/C. Item: S=c1[nH]c2ccccc2s1
Result: 100 % of control

Problem: State its T/C for this compound: CCOC(=O)c1ccc(C(=O)OCC)c(C#N)n1
Result: 97 % of control

Problem: Quick one: give measured T/C for CCC(=O)Nc1ccc(Cl)cc1
Result: 93 % of control

Problem: Quick one: give measured T/C for Cc1cccc(C)c1NS(=O)(=O)c1ccccc1
Result: 101 % of control

Problem: Answer with reported T/C of O=C(/C=C/C(=O)Oc1ccc(Cl)cc1Cl)Oc1ccc(Cl)cc1Cl
Result: 95 % of control

Problem: Report T/C, nothing else, for this compound: COc1ccc2c(c1Oc1ccc([N+](=O)[O-])cc1[N+](=O)[O-])C13CCN(C)C(C2)C1CCC1(C3)OCCO1 (configuration not stated)
Result: 102 % of control

Problem: Please look at this compound and report its T/C: Cc1c(C#N)oc2cccc(O)c12
Result: 100 % of control

Problem: Fill in T/C for record Cc1cccc(Cl)c1NC(=O)COc1ccc(Cl)cc1
Result: 89 % of control

Problem: Consider the compound COc1ccc(/C(=N/Nc2ccccc2)C(C)C(O)(C(F)(F)F)C(F)(F)F)cc1 (configuration not stated) and give its recorded T/C.
Result: 89 % of control

Problem: For the compound CCNP(=O)(CCl)NC12CC3CC(CC(C3)C1)C2 (configuration not stated) , report T/C.
Result: 93 % of control

Problem: Tell me measured T/C for O=C(Nc1ccc(O)cc1)OCc1ccccc1 please.
Result: 96 % of control

Problem: Given COc1cc(/C=N\N=C(/C)c2ccc(F)cc2)cc(OC)c1OC , respond with its T/C.
Result: 86 % of control

Problem: Report T/C, nothing else, for this compound: COc1ccc(S(=O)(=O)Nc2cccc(C(F)(F)F)c2)cc1
Result: 102 % of control

Problem: Look up T/C of COc1ccc(CCN2CSC(=S)N(CCc3ccc(OC)c(OC)c3)C2)cc1OC and report it.
Result: 100 % of control

Problem: # return recorded T/C for entry S=c1[nH]c(=S)c2[nH]c(=S)[nH]c2[nH]1
Result: 93 % of control

Problem: Please supply the value of reported T/C for the item O=C(N/N=C\c1cc(Cl)cc(Cl)c1O)c1cccnc1
Result: 89 % of control

Problem: Supply measured T/C of CCC(OBr)C1COC(Nc2ccccc2)O1 (configuration not stated) in your reply.
Result: 96 % of control

Problem: Give T/C for the following compound: O=C1c2ccccc2C(=O)N1c1ccc(CBr)cc1
Result: 89 % of control

Problem: Please report T/C for the following compound: Cc1cccc(NC(=O)CCl)c1C
Result: 87 % of control

Problem: Give the value of T/C reported for the following: CCOc1ccc(NC(=O)c2cccc(C(=O)Nc3ccc(OCC)cc3)c2)cc1
Result: 101 % of control

Problem: Using known records, supply T/C for COc1cc(C)c2cccc(OC)c2n1
Result: 108 % of control

Problem: Annotate the compound COc1ccc(NC(=O)Nc2cc(Cl)ccc2OC)c(OC)c1 with its measured T/C.
Result: 102 % of control

Problem: For O=C(O)COc1cc(F)c(Cl)cc1Cl , write its T/C.
Result: 90 % of control

Problem: Supply reported T/C belonging to this compound: CCOC(=O)c1cnc(SC)nc1Nc1cccc(Br)c1
Result: 96 % of control

Problem: For the compound COc1cccc(C(Cc2ccccc2)NCc2ccccc2)c1 (configuration not stated) , give its reported T/C.
Result: 91 % of control

Problem: Dear colleague, please send me the reported T/C for Nc1ccccc1C(=O)OCCc1ccccc1 when you can.
Result: 93 % of control

Problem: Could you please provide reported T/C for O=C(Nc1ccc(C(c2ccccc2)(c2ccccc2)c2ccccc2)cc1)C(Cl)Cl ? Thanks!
Result: 97 % of control

Problem: Provide measured T/C value, entry: O=C(Nc1cccc(F)c1)Nc1cc(Cl)ccc1Cl
Result: 102 % of control

Problem: Note down T/C recorded for O=[N+]([O-])c1ccc(O)c(C2N(Cc3ccc(N(CCCl)CCCl)cc3)CCCN2Cc2ccc(N(CCCl)CCCl)cc2)c1
Result: 98 % of control

Problem: Tell me measured T/C for COc1cccc(OC)c1OC(=O)Nc1ccccc1F please.
Result: 106 % of control

Problem: Identify measured T/C associated with Cc1cccc(Cl)c1NC(=O)c1cc([N+](=O)[O-])cc([N+](=O)[O-])c1
Result: 96 % of control

Problem: Specify reported T/C for the compound shown: CCCCOC(=O)C1CCCCC1C(=O)OCCCC (configuration not stated)
Result: 90 % of control

Problem: Using the record for NC(=O)c1ccc(C(F)(F)F)cc1O , state its measured T/C.
Result: 95 % of control

Problem: Item O=C(NCc1ccccc1Cl)Nc1ccccc1F : provide T/C
Result: 98 % of control

Problem: Give the reported value of T/C for this record: CC(C)N(C(=O)Nc1ccccc1Cl)c1ccccc1
Result: 92 % of control

Problem: Tell me measured T/C for Cc1n(CCBr)c([N+](=O)[O-])c[n+]1C1N=C(c2ccccc2)c2cc(Cl)ccc2N(C)C1=O (configuration not stated) please.
Result: 86 % of control
